The measurements presented in this section are drawn from patent US20160017016A1.

system: human glucagon receptor (GCGR) (human, UniProt P47871 26-477)
Sequence (P47871 26-477): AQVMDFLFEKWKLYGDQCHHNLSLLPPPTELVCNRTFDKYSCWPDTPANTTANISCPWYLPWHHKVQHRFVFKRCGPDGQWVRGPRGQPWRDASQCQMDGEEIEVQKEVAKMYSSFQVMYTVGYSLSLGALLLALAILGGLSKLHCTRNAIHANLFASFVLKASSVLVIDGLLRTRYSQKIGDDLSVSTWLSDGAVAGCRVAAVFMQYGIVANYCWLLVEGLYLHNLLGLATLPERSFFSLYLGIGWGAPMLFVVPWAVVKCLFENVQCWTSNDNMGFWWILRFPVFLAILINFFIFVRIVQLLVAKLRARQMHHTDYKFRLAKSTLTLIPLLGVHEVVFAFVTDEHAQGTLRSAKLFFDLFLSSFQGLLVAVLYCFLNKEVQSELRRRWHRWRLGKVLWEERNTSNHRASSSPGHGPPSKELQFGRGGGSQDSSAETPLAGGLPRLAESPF
assayExplanation: cell-based or functional assay
*1 amine or outer side, *2 acyl side, *3 side chain or, on linkers, in order; H or OH if unused. Primed or numbered codes have the meaning given here. Where no end group is shown, it is not given here. Side-chain parts run from the residue outwards. [ ]: non-standard residue; d: D form. The star is where a group is joined. PEG4′ = 4 PEG units (K(PEGxpalm): Lys with x PEG units and palmitoyl at epsilon N, C-terminal (PEG)4); γGlu = O=C(O)[C@H](CCC(=O)[*:2])N[*:1]; Palmitoyl = CCCCCCCCCCCCCCCC(=O)*
Rule: cAMP activity, Glcg EC50 nM of 0.003 nM or more gives satisfied; anything lower gives not satisfied.

Sample answers from the record:
HSQGTFTSDYSKYLDSXRAQDFVQWLE (not fully specified; K(PEG2-PEG2-gE-palm) at 17; C-terminal PEG4) [g966]
not satisfied
HSQGTFTSDYSKYLDSXRAQDFVQWLV (not fully specified; K(PEG4-palm) at 17; C-terminal PEG3) [g436]
not satisfied
HSEGTFTSDYSKYK([γGlu-Palmitoyl])DSRRAQDFVQWLV[PEG4′] [g515]
satisfied
HSQGTFTSDYSRYLDSK([γGlu-Palmitoyl])RARDFVAWLV[PEG4′] [g827]
satisfied

Has HSQGTFTSDYSKYLDSXRAQDFVQWLE (K(PEG2-palm) at 17; C-terminal PEG4) [g502] a recorded cAMP activity, Glcg EC50 nM greater than or equal to 0.003 nM? not satisfied
